# Tested on: P3HR-1 (B-cell lymphoma)
# TEST: human suspension tumor cell line assay, P3HR-1
# Type: cell-based
# CONDITION_LABEL: 2 h exposure, cells counted after 5 days; read-out: cytotoxicity IC50, P3HR-1
I'd be grateful if you could share measured IC50 for these entries.
One number for each entry, in nM.

CCOC(=O)C1C(P(c2ccccc2)c2ccccc2)C2C(C)=C(C)C1P2c1ccccc1.[Cl][Au].[Cl][Au] (centres unmarked) [(Sp)-I]    500

Next, consider the following compound.
Short answer for CCOC(=O)C1C(P(c2ccccc2)c2ccccc2)C2C(C)=C(C)C1P2c1ccccc1.[Cl][Au].[Cl][Au] (centres unmarked) [(Rp)-I] : IC50 was 200
